# Target of assay: Hepatocyte growth factor receptor (Homo sapiens)
# Sequence (P08581 whole entry): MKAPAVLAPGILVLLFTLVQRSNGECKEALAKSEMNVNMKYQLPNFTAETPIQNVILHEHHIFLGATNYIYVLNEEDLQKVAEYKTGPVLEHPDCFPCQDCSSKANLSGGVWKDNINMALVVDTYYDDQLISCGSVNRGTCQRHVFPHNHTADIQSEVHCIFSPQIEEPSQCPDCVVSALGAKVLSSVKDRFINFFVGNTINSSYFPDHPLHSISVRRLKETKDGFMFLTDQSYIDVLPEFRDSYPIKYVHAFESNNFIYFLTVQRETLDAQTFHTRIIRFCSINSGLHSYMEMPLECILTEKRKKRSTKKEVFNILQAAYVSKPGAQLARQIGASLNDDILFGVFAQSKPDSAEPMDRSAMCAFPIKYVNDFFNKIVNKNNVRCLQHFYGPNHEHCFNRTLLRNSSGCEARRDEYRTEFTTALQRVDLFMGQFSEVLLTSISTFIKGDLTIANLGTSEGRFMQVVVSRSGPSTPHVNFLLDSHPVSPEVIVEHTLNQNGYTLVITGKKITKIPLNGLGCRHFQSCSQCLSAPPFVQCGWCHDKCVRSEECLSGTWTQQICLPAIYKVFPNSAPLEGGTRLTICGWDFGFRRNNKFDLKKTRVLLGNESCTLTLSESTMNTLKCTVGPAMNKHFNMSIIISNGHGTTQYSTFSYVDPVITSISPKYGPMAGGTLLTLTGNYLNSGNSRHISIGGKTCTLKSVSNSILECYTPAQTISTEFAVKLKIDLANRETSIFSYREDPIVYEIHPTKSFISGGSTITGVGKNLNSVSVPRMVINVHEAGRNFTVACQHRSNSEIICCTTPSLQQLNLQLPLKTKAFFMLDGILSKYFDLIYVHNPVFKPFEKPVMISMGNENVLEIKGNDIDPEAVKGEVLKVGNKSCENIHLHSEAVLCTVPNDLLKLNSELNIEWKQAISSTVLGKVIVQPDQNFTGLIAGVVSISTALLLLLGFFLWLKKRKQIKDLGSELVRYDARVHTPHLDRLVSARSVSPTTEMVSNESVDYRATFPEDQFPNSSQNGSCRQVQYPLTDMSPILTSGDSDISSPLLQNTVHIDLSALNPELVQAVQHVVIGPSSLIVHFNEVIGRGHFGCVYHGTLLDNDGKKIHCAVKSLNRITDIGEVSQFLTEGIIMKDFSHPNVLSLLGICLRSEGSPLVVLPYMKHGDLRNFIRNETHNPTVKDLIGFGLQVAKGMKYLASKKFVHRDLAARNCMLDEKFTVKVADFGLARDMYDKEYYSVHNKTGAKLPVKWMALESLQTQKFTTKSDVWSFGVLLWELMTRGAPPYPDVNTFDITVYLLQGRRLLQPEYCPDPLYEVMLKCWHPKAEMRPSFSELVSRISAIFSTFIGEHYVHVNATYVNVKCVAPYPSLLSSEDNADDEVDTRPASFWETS
# Method: Induction of c-Met degradation in human MHCC97H cells at 1 uM incubated for 24 hrs by Western blotting analysis
# Type: cell-based
Short version: Activity at least 40% is label 1, less is label 0.

Before answering, review these 3 worked examples.
N#Cc1cccc(-c2ccc(=O)n(Cc3cccc(-c4ncc(OCC5CCN(C(=O)CC6c7ccccc7-c7ccccc76)CC5)cn4)c3)n2)c1 = label 0
N#Cc1cccc(-c2ccc(=O)n(Cc3cccc(-c4ncc(OCC5CCN(CC(=O)NCCCCCCNC(=O)CC67CC8CC(CC(C8)C6)C7)CC5)cn4)c3)n2)c1 = label 0
CC(C)[C@@H]1CC[C@@H](C)C[C@H]1OCC(=O)N1CCC(COc2cnc(-c3cccc(Cn4nc(-c5cccc(C#N)c5)ccc4=O)c3)nc2)CC1 = label 0

Threshold query (Activity >= 40%) on N#Cc1cccc(-c2ccc(=O)n(Cc3cccc(-c4ncc(OCC5CCN(CC(=O)NCC6CC7C=CC6C7)CC5)cn4)c3)n2)c1 (stereo not drawn) label 1

API: above_or_equal(metric=Activity, cutoff=40%) for item N#Cc1cccc(-c2ccc(=O)n(Cc3cccc(-c4ncc(OCC5CCN(CC(=O)NCCCCCCCCCCNC(=O)CC67CC8CC(CC(C8)C6)C7)CC5)cn4)c3)n2)c1 label 0

hey, is Activity for this one >= 40%? N#Cc1cccc(-c2ccc(=O)n(Cc3cccc(-c4ncc(OCC5CCN(CC(=O)NCCNC(=O)CC67CC8CC(CC(C8)C6)C7)CC5)cn4)c3)n2)c1 label 0

Check this compound for Activity at or above 40%: N#Cc1cccc(-c2ccc(=O)n(Cc3cccc(-c4ncc(OCC5CCN(CCCCCC(=O)NCC67CC8CC(CC(C8)C6)C7)CC5)cn4)c3)n2)c1 label 1

Would you say N#Cc1cccc(-c2ccc(=O)n(Cc3cccc(-c4ncc(OCC5CCN(CC(=O)NCCCCCCCCNC(=O)CC67CC8CC(CC(C8)C6)C7)CC5)cn4)c3)n2)c1 shows Activity at minimum 40%? label 0

Could you verify whether the entry N#Cc1cccc(-c2ccc(=O)n(Cc3cccc(-c4ncc(OCC5CCN(CC(=O)NCCCCNC(=O)CC67CC8CC(CC(C8)C6)C7)CC5)cn4)c3)n2)c1 shows Activity of no less than 40%? label 0

Evaluate N#Cc1cccc(-c2ccc(=O)n(Cc3cccc(-c4ncc(OCC5CCN(CCNC(=O)CC67CC8CC(CC(C8)C6)C7)CC5)cn4)c3)n2)c1 : Activity at minimum 40%? label 0

In plain terms: is recorded Activity at least 40% for N#Cc1cccc(-c2ccc(=O)n(Cc3cccc(-c4ncc(OCC5CCN(C(=O)CC(c6ccccc6)c6ccccc6)CC5)cn4)c3)n2)c1 ? label 0

Test whether the compound N#Cc1cccc(-c2ccc(=O)n(Cc3cccc(-c4ncc(OCC5CCN(C(=O)CC67CC8CC(CC(C8)C6)C7)CC5)cn4)c3)n2)c1 records Activity of 40% or higher. label 1

###

# Test system: MHCC97H
# Method: Antiproliferative activity against human MHCC97H cells incubated for 24 hrs by CCK8 assay
# Type: functional, cell-based
Reported endpoint: pIC50
# pIC50 is unitless: minus log10 of the molar concentration; print number only

CC(C)[C@@H]1CC[C@@H](C)C[C@H]1OCC(=O)N1CCC(COc2cnc(-c3cccc(Cn4nc(-c5cccc(C#N)c5)ccc4=O)c3)nc2)CC1 = 6.59
N#Cc1cccc(-c2ccc(=O)n(Cc3cccc(-c4ncc(OCC5CCN(C(=O)CC6c7ccccc7-c7ccccc76)CC5)cn4)c3)n2)c1 = 6.03
N#Cc1cccc(-c2ccc(=O)n(Cc3cccc(-c4ncc(OCC5CCN(CC(=O)NCC6CC7C=CC6C7)CC5)cn4)c3)n2)c1 (stereo not drawn) = 7.13
N#Cc1cccc(-c2ccc(=O)n(Cc3cccc(-c4ncc(OCC5CCN(CC(=O)NCCCCCCCCCCNC(=O)CC67CC8CC(CC(C8)C6)C7)CC5)cn4)c3)n2)c1 = 6.81
N#Cc1cccc(-c2ccc(=O)n(Cc3cccc(-c4ncc(OCC5CCN(CCCCCC(=O)NCC67CC8CC(CC(C8)C6)C7)CC5)cn4)c3)n2)c1 = 8.58

Return reported pIC50; argument: N#Cc1cccc(-c2ccc(=O)n(Cc3cccc(-c4ncc(OCC5CCN(CC(=O)NCCNC(=O)CC67CC8CC(CC(C8)C6)C7)CC5)cn4)c3)n2)c1 7.40

I have this compound here, CN1CCC(COc2cnc(-c3cccc(Cn4nc(-c5cccc(C#N)c5)ccc4=O)c3)nc2)CC1 , and I need its recorded pIC50. 8.44

pIC50 lookup needed for N#Cc1cccc(-c2ccc(=O)n(Cc3cccc(-c4ncc(OCC5CCN(C(=O)CC(c6ccccc6)c6ccccc6)CC5)cn4)c3)n2)c1 , thanks. 6.89

###

# Test system: MHCC97H
# Method: Antiproliferative activity against human MHCC97H cells incubated for 24 hrs by CCK8 assay
# Type: functional, cell-based
API: label(entry) gives criterion met if the entry's IC50 is strictly smaller than 70 nM; on equality or larger values it gives criterion not met.

N#Cc1cccc(-c2ccc(=O)n(Cc3cccc(-c4ncc(OCC5CCN(C(=O)CC67CC8CC(CC(C8)C6)C7)CC5)cn4)c3)n2)c1 = criterion met
N#Cc1cccc(-c2ccc(=O)n(Cc3cccc(-c4ncc(OCC5CCN(CC(=O)NCCCCCCCCNC(=O)CC67CC8CC(CC(C8)C6)C7)CC5)cn4)c3)n2)c1 = criterion not met
N#Cc1cccc(-c2ccc(=O)n(Cc3cccc(-c4ncc(OCC5CCN(CCCC(=O)NCC67CC8CC(CC(C8)C6)C7)CC5)cn4)c3)n2)c1 = criterion met
N#Cc1cccc(-c2ccc(=O)n(Cc3cccc(-c4ncc(OCC5CCN(CC(=O)NCCCCCCNC(=O)CC67CC8CC(CC(C8)C6)C7)CC5)cn4)c3)n2)c1 = criterion not met
N#Cc1cccc(-c2ccc(=O)n(Cc3cccc(-c4ncc(OCC5CCN(CCNC(=O)CC67CC8CC(CC(C8)C6)C7)CC5)cn4)c3)n2)c1 = criterion met

Consider the additional compound presented here.
hey, is IC50 for N#Cc1cccc(-c2ccc(=O)n(Cc3cccc(-c4ncc(OCC5CCN(CC(=O)NCCCCNC(=O)CC67CC8CC(CC(C8)C6)C7)CC5)cn4)c3)n2)c1 lower than 70 nM or not? criterion not met

###

# Method: Oral bioavailability in Sprague-Dawley rat at 10 mg/kg by LC-MS/MS method
# Assay type: ADME, organism-based
# Condition context: in vivo
Reported endpoint: bioavailability (%)
The response must be a number in % with no trailing unit.

Report bioavailability for N#Cc1cccc(-c2ccc(=O)n(Cc3cccc(-c4ncc(OCC5CCN(CCCCCC(=O)NCC67CC8CC(CC(C8)C6)C7)CC5)cn4)c3)n2)c1 please. 0.8

###

# Method: Tmax in Sprague-Dawley rat at 10 mg/kg, po by LC-MS/MS method
# Type: ADME, organism-based
# Condition context: in vivo
Reported endpoint: Tmax (h)
The figure you give is taken to be in h; do not add the unit.

Report Tmax for N#Cc1cccc(-c2ccc(=O)n(Cc3cccc(-c4ncc(OCC5CCN(CCCCCC(=O)NCC67CC8CC(CC(C8)C6)C7)CC5)cn4)c3)n2)c1 please. 1.17

###

# Method: Mean residence time (0 to infinity) in Sprague-Dawley rat at 1 mg/kg, iv by LC-MS/MS method
# Format: ADME, organism-based
# Condition context: in vivo
Reported endpoint: MRT inf (h)
Just the number please, in h, no unit attached.

Can you look up the measured MRT inf of N#Cc1cccc(-c2ccc(=O)n(Cc3cccc(-c4ncc(OCC5CCN(CCCCCC(=O)NCC67CC8CC(CC(C8)C6)C7)CC5)cn4)c3)n2)c1 for me? 3.86
